target: UniProt:P0DTC3
Sequence (P0DTC3 whole entry): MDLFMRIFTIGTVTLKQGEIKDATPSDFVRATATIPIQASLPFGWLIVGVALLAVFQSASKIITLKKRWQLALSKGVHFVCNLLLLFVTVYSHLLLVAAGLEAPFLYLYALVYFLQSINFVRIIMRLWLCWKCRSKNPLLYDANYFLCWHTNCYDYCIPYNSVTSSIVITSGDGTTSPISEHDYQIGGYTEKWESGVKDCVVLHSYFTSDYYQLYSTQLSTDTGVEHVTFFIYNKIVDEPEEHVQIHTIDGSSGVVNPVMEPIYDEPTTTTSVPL
readout type: Kd (nM)
Just the number please, in nM, no unit attached.

Reported Kd, molecule `NC(=O)c1ccc(-c2nc(-c3ccc4c(c3)OCO4)c(-c3ccccn3)[nH]2)cc1` : ____
220
